# system-tested: human Bradykinin B1 receptor (Homo sapiens, UniProt P46663)
# Construct: host or cells: CHO-K1
# Sequence (P46663 1-353): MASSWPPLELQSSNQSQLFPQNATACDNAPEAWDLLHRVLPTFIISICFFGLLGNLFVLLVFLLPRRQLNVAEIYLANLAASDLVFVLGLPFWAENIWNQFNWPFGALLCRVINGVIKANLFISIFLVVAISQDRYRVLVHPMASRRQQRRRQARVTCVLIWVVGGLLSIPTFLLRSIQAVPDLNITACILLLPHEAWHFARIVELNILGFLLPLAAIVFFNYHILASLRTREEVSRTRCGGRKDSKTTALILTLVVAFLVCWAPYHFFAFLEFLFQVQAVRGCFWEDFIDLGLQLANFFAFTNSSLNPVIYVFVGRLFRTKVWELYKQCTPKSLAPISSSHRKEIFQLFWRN
# assay-details: Calcium flux Assay (FLIPR) with recombinant CHO-K1 cells expressing human Bradykinin B1 receptor, in presence (hB1 IC50) or absence (hB1 free IC50) of 0.1% BSA
# Type: cell-based
# setup-conditions: in presence of 0.1% BSA, read-out: hB1 IC50
measured-metric: IC50 (µM)

{"compound": "COc1ccc(-c2ccc(NC(=O)C3(c4cccc(C(F)(F)F)c4)CC3)cc2-c2nnn[nH]2)cc1OC", "recorded-number": 0.0388}
{"compound": "COc1ccc(-c2ccc(NC(=O)C3(c4cc(F)cc(F)c4)CC3)cc2-c2nnn[nH]2)cc1OC", "recorded-number": 0.0866}
{"compound": "COCc1ccc(-c2ccc(NC(=O)C3(c4cccc(Cl)c4)CC3)cc2-c2nnn[nH]2)cc1C", "recorded-number": 0.0383}
{"compound": "COc1ccc(-c2ccc(NC(=O)C3(C4CCC(C)CC4)CC3)cc2-c2nnn[nH]2)cc1 (mixture of isomers) [Example 114]", "recorded-number": 1.35}

P = O=C(Nc1ccc(-c2ccc(N3CCOCC3)nc2)c(-c2nnn[nH]2)c1)C1(c2cccc(Cl)c2)CC1
Q = Cc1ccc(-c2ccc(NC(=O)C3(c4cccc(Cl)c4)CC3)cc2-c2nnn[nH]2)cn1
Data request: Name the one with the greater IC50 value, either P or Q as given. Write the label of whichever entry you select.
Data returned: P
